- test-system: hNav1.7 (Homo sapiens (Human), UniProt Q15858)
- Sequence (Q15858 other isoform, or with tags, fused parts or gaps): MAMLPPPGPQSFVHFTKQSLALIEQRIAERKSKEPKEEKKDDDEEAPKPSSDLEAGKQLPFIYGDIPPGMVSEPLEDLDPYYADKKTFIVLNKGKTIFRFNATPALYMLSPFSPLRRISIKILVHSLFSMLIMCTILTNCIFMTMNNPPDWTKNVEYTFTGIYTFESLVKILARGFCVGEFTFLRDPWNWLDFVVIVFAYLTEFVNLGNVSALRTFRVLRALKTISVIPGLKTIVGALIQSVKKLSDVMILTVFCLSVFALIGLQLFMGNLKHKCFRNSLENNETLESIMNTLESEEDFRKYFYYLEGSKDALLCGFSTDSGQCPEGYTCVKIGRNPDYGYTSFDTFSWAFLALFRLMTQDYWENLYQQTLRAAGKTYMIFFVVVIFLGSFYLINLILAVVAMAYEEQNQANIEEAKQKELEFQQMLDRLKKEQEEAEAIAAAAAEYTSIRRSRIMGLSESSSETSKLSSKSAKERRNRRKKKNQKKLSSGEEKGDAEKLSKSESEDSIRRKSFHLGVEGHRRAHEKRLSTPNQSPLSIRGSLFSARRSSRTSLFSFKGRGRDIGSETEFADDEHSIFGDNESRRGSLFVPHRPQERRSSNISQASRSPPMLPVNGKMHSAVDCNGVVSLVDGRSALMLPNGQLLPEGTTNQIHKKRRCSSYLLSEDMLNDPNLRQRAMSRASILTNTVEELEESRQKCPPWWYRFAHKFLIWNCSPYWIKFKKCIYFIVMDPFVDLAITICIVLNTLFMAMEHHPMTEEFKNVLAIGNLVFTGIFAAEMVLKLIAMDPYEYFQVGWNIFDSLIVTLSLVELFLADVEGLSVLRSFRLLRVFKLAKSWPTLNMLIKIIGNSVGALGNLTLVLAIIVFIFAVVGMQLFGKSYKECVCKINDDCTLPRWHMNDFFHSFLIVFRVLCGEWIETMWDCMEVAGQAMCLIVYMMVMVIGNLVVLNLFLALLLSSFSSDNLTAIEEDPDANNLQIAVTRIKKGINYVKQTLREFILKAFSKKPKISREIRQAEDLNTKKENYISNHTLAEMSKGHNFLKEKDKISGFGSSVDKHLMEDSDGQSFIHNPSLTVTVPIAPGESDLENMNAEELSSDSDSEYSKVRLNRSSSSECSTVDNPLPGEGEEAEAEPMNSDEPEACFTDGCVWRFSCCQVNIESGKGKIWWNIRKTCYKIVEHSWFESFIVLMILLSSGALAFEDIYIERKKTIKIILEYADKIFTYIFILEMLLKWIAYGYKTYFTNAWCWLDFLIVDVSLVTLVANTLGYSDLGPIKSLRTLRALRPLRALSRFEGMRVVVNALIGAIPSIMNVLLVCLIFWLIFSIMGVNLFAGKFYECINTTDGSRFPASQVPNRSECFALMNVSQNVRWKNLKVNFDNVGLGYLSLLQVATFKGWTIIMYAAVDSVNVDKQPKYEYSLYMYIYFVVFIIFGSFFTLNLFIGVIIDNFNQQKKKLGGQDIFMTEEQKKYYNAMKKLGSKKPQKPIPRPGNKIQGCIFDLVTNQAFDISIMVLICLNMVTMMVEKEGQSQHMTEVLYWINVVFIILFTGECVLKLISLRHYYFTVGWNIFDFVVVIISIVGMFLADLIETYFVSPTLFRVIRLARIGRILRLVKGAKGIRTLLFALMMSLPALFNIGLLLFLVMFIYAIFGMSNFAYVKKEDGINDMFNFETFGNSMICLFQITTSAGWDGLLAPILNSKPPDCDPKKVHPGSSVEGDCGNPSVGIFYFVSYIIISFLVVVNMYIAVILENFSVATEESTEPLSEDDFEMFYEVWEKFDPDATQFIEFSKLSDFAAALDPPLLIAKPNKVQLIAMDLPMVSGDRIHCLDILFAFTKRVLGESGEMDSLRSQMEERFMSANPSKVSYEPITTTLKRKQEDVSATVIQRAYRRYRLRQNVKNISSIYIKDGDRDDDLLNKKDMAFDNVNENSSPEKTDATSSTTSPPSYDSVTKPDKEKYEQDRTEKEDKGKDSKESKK
- Sequence (Q07699 19-218 partner): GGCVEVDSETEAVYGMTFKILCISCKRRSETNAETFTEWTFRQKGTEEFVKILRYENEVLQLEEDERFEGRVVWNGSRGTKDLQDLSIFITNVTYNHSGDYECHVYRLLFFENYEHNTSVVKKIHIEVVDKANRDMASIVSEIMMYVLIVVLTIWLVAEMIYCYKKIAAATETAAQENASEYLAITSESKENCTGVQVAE
- protocol-text: Tritiated sulfonamide competitive binding to membranes from cells expressing hNav1.7 and the β1 subunit;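 further: Filter-bound radioactivity counted by liquid scintillation, nonspecific binding defined with excess unlabelled ligand, IC50 fitted to percent inhibition of specific binding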
pIC50: −log10 of the molar value. Structures can show the parent of a compound that is named as a salt.
Threshold rule: pIC50 greater than or equal to 8 is true; below that, false.

// below: answered compounds
stdin: Tell me whether pIC50 is at least 8 here: `CC(C)(C)N1CCC[C@@H](Oc2cc(F)c(C(=O)NS(C)(=O)=O)cc2C2CC2)C1`
stdout: false

stdin: Tell me whether pIC50 is at least 8 here: `CS(=O)(=O)NC(=O)c1cc(C2CC2)c(O[C@@H]2CCCN(Cc3ccnnc3)C2)cc1F`
stdout: false

stdin: Tell me whether pIC50 is at least 8 here: `CS(=O)(=O)NC(=O)c1cc(C2CC2)c(OCC2CN([C@H](c3ccccc3)c3ccc(C#N)cc3)C2)cc1F`
stdout: false

With those in mind, consider the next compound.
stdin: Tell me whether pIC50 is at least 8 here: CS(=O)(=O)NC(=O)c1cc(C2CC2)c(CN2CCC(Oc3ncc(C(F)(F)F)cc3Cl)CC2)cc1F [Example 523, trifluoroacetic acid salt]
stdout: true

---

- test-system: NaV1.7 (Homo sapiens (Human), UniProt Q15858)
- Sequence (Q15858 other isoform, or with tags, fused parts or gaps): as the sequence (Q15858 other isoform, or with tags, fused parts or gaps) above
- Sequence (Q07699 19-218 partner): as the sequence (Q07699 19-218 partner) above
- protocol-text: Patch voltage clamp electrophysiological assay (EP), NaV1.7
- setup-conditions: HEK-293 cells stably expressing human NaV1.7 with β1 subunit, whole-cell patch clamp, holding −60 mV
- Method: Electrophysiological Assay (EP) (In vitro Assay) Control sodium currents were measured in 0.5% DMSO. Series resistance compensation was applied (60-80%).
measurement-type: IC50 (nM)
Numbers only, in nM.

Take each entry in turn and give its IC50.
1. CS(=O)(=O)NC(=O)c1cc(C2CC2)c(OCC2CCN(Cc3cc(F)cc(Cl)c3)CC2)cc1F
2. COC[C@H](c1cc(Cl)cc(Cl)c1)N1CCC(COc2cc(F)c(C(=O)NS(=O)(=O)N3CCC3)cc2C2CC2)CC1 (single isomer, unassigned)
3. CC(C)(c1cc(Cl)cc(Cl)c1)N1CCC(COc2cc(F)c(C(=O)NS(C)(=O)=O)cc2C2CC2)CC1
4. CCS(=O)(=O)NC(=O)c1cc(C2CC2)c(OCC2CCN([C@H](COC)c3cc(Cl)cc(Cl)c3)CC2)cc1F (single isomer, unassigned)
5. O=C(NS(=O)(=O)N1CCC1)c1cc(C2CC2)c(O[C@@H]2CCCN(Cc3ccccc3)C2)cc1F
6. CS(=O)(=O)NC(=O)c1cc(C2CC2)c(OCC2CCN(Cc3cc(F)cc(C(F)(F)F)c3)CC2)cc1F

stdout:
1: 2.8; 2: 4.2; 3: 15.8; 4: 3; 5: 22.6; 6: 31

---

- test-system: hNav1.7 (Homo sapiens (Human))
- protocol-text: Tritiated sulfonamide competitive binding to membranes from cells expressing hNav1.7 and the β1 subunit
- setup-conditions: read-out: Ligand Binding Assay; 100 pM [3H]compound, membranes with hNav1.7 and β1 subunit, 18 h, room temperature
measurement-type: IC50 (nM)
One number for each entry, in nM.

Example molecules with recorded IC50:
stdin: Give the reported IC50 for this molecule. `CCS(=O)(=O)NC(=O)c1cc(C2CC2)c(OCC2CCN(C(C)(C)c3cc(Cl)cc(Cl)c3)CC2)cc1F`
stdout: 1.9

stdin: Give the reported IC50 for this molecule. `CS(=O)(=O)NC(=O)c1cc(C2CC2)c(OCC2CCN(S(=O)(=O)C3CCOCC3)CC2)cc1F`
stdout: 2450

stdin: Give the reported IC50 for this molecule. `CCS(=O)(=O)NC(=O)c1cc(C2CC2)c(OCC2CCN(Cc3ccc(Cl)cc3Cl)CC2)cc1F`
stdout: 2.5

Continuing:
stdin: Give the reported IC50 for this molecule. `CS(=O)(=O)NC(=O)c1cc(C2CC2)c(OCC2CCN(S(=O)(=O)c3ccc4ccccc4c3)CC2)cc1F`
stdout: 16.3
